Listed here: items and their measured AC50.
- Study target: APOL1 G2 (Homo sapiens, UniProt O14791, DEL388-389)
- Construct: expressed in transfected cells; host or cells: HEK293 T-REx clonal line stably expressing GCaMP6f (HEK T-REx/GCaMP6f/APOL1 G2 K6.3), doxycycline induced
- Sequence (O14791 with tags, fused parts or gaps DEL388-389): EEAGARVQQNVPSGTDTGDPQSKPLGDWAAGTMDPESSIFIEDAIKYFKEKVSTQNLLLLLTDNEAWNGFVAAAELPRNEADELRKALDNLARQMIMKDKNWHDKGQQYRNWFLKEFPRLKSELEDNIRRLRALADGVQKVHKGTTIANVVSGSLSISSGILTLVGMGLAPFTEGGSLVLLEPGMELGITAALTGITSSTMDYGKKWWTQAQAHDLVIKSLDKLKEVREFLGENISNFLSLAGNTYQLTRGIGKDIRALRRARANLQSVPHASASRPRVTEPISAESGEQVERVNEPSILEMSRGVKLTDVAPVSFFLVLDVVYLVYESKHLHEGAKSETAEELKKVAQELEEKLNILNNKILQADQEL
- Assay overview: APOL1-mediated calcium transport (calcium influx) assay, HEK T-REx/GCaMP6f/APOL1 G2 K6.3 cells, FLIPR TETRA
- Type: cell-based
- Reported conditions: prevention of calcium influx; geometric mean of at least 2 assay runs; † = average of a technical replicate from a single assay run
Quick note: give the figure in nM, leave out the unit.

C[C@]1(O)C[C@@H](n2cnc3cc(OCCN4CCC5(CC4)C(=O)Nc4ccc(Cl)cc45)cc(C(F)F)c32)C1
1110
C[C@]1(O)C[C@@H](N2C(=O)NCc3cc(OCCN4CCC5(CC4)C(=O)Nc4ccc(Cl)cc45)cnc32)C1
2490
CN1C(=O)C2(CCN(CCOc3ccc(S(C)(=O)=O)cc3)CC2)c2ccccc21
351
C[C@]1(O)C[C@@H](n2cc3cc(OCCN4CCC5(CC4)C(=O)Nc4ccc(C#N)cc45)cc(C(F)(F)F)c3n2)C1
1200
CC[C@]1(O)C[C@H](N2C(=O)CCc3cc(OCCN4CCC5(CC4)C(=O)Nc4ccc(Cl)cc45)cnc32)C1 (single isomer, unassigned)
253

For the next question, use this compound.
// recorded AC50 for C[C@]1(O)C[C@@H](n2c(=O)[nH]c3cc(OCCN4CCC5(CC4)C(=O)Nc4ccc(Cl)cc45)cc(C(F)(F)F)c32)C1 : 867

FYI, the data here is from patent US12344610B2.
